Target: human APJ receptor (Homo sapiens (Human), UniProt P35414)
Sequence (P35414 whole entry): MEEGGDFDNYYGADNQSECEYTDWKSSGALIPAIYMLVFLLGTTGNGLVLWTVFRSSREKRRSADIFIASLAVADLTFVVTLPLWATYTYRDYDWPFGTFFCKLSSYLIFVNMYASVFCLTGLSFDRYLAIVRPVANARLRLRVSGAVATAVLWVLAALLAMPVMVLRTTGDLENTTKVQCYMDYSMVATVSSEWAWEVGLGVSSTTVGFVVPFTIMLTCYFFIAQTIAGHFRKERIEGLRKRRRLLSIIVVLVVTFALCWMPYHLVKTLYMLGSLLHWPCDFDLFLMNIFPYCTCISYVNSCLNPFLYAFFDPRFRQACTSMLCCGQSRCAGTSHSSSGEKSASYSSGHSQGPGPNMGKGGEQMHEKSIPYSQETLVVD
Experiment: [35S]GTPγS binding assay on membranes from CHO cells stably expressing human APJ receptor
Details: read-out: Activity hAPJ SPA EC50 IP
pEC50 values for the compounds below.
Entry type: numeric. Quantity: pEC50, the -log10 of concentration in molar units.

Known results for compounds:
COc1cccc(OC)c1-n1c(NS(=O)(=O)[C@@H](C)[C@H](C)c2ccc(Cl)cn2)nnc1[C@@H]1COCCO1 (single isomer, unassigned) [Example 267.0]: 8.68
COc1cccc(OC)c1-n1c(NS(=O)(=O)[C@@H](C)[C@H](C)c2ncc(C)cn2)nnc1[C@H]1CCCCO1 (single isomer, unassigned) [Example 85.0]: 8.02
COc1cccc(OC)c1-n1c(NS(=O)(=O)[C@@H](C)[C@@H](OC(C)C)c2ncc(C)cn2)nnc1[C@H]1CCCOC1 (single isomer, unassigned) [Example 136.0]: 6.89

Prompt: Can you share its pEC50? I mean this compound: COc1cccc(OC)c1-n1c(NS(=O)(=O)[C@@H](C)[C@H](C)c2ccc(Cl)cn2)nnc1C1CCOC1 (single isomer, unassigned) [Example 409.0]
Completion: 7.96

Prompt: Would you kindly share the measured pEC50 for COc1cccc(OC)c1-n1c(NS(=O)(=O)[C@@H](C)[C@@H](OC(C)C)c2ncc(C)cn2)nnc1[C@@H]1COC(C)(C)C1 (single isomer, unassigned) [Example 411.0] ?
Completion: 7.07

* * *

Target: human APJ receptor (Homo sapiens (Human))
Assay: [35S]GTPγS binding assay on membranes from CHO cells stably expressing human APJ receptor
Conditions: read-out: Activity hAPJ SPA EC50 IP
measure name: EC50 (nM)
Quick note: give the figure in nM, leave out the unit.

Consider the following illustrative entries.
COc1cccc(OC)c1-n1c(NS(=O)(=O)[C@@H](C)[C@H](C)c2ncc(Cl)cn2)nnc1[C@H]1OCC[C@H]1C (single isomer, unassigned) [Example 68.0]: 14
COc1ncnc(OC)c1-n1c(NS(=O)(=O)[C@@H](C)[C@H](OC)c2ncc(Cl)cn2)nnc1[C@H]1CCC(C)(C)O1 (single isomer, unassigned) [Example 138.0]: 120
COc1cccc(OC)c1-n1c(NS(=O)(=O)[C@@H](C)[C@H](C)c2cnc(C)cn2)nnc1[C@H]1CCCO1 (single isomer, unassigned) [Example 90.0]: 370
COc1cccc(OC)c1-n1c(NS(=O)(=O)[C@@H](C)[C@H](OC)c2ncc(Cl)cn2)nnc1[C@H]1OCC[C@H]1C (single isomer, unassigned) [Example 74.0]: 120
COc1cccc(OC)c1-n1c(NS(=O)(=O)[C@@H](C)[C@H](OC)c2ncc(C)cn2)nnc1[C@@H]1CCNC1 (mixture of isomers): 510

Prompt: EC50 lookup needed for CO[C@H](c1ncc(Cl)cn1)[C@H](C)S(=O)(=O)Nc1nnc([C@H]2CCOC2)n1Cc1ccon1 (single isomer, unassigned) [Example 401.0] , thanks.
Completion: 100

Prompt: Would you mind telling me what EC50 value was observed for COc1cccc(OC)c1-n1c(NS(=O)(=O)[C@@H](C)[C@H](C)c2ncc(C)cn2)nnc1[C@H]1CCO[C@@H]1C (single isomer, unassigned) [Example 122.0] ?
Completion: 930

Prompt: Find the recorded EC50 belonging to COc1ncnc(OC)c1-n1c(NS(=O)(=O)[C@@H](C)[C@H](C)c2ncc(Cl)cn2)nnc1[C@H]1CCOC1 (single isomer, unassigned) [Example 94.0] and report it.
Completion: 190
